- TESTED SYSTEM: BCAT2 (Homo sapiens)
- EXPERIMENTAL DETAILS: BCAT2 in vitro enzyme inhibition assay (hBCAT2, glutamate dehydrogenase/diaphorase/resazurin coupled fluorescence read)
- Type: biochemical
- REPORTED CONDITIONS: hBCAT2, 1 h preincubation at 25° C., one hour reaction; average where tested multiple times
- Experimental: • 2×Buffer: 200 mM Tris pH 8.0, 300 mM NaCl, 0.1% BSA • 1.67×hBCAT2 Enzyme Mix: 0.33 μg/mL hBCAT2, 1× Buffer • 2.5×Substrate Mix: 460 µM L-leucine, 420 µM α-KetoGlutarate, 10 U/mL glutamate dehydrogenase, 10 mM NAD, […] diaphorase, […] Resazurin BCAT2 enzyme stock solution was diluted to prepare a 1.67×hBCAT2 Enzyme Mix. […] Reactions were quenched after one hour by the addition of 25 μL of 6% SDS and reaction progress was measured via fluorescence read (Ex 540/Em 590). […]
pIC50: −log10 of the molar value.
The entries below come with measured pIC50 values attached.

Worked examples follow.
compound="O=C(NC1CCCCC(n2c(-c3ccccc3F)nc3cnc(-c4nc(C(F)(F)F)co4)cc32)C1O)c1cc(F)ccc1F (stereo not shown)" measurement_name=pIC50 observed_measurement="> 7.00"
compound=CCN(C)c1nc2cnc(-c3nc[nH]n3)cc2n1[C@@H]1CCC[C@H](NC(=O)c2cc(Cl)ccn2)C1 measurement_name=pIC50 observed_measurement="6.30 to 7.00"
compound=O=C(N[C@H]1CCC[C@@H](n2c(-c3ccccc3F)nc3cnc(-c4nc[nH]n4)cc32)C1)c1cc(Cl)cc[n+]1[O-] measurement_name=pIC50 observed_measurement="> 7.00"
compound=N#Cc1ccccc1-c1nc2cnc(-c3nc(C(F)(F)F)co3)cc2n1[C@@H]1CCC[C@H](NC(=O)c2cc(F)ccc2F)C1 measurement_name=pIC50 observed_measurement="> 7.00"

In the following, a different compound is considered.
Asked: Please give the measured pIC50 for this compound: O=C1c2cc(Cl)ccc2CN1[C@H]1CCC[C@@H](n2c(-c3ccccc3OCCO)nc3cnc(-c4nc[nH]n4)cc32)C1
Given back: > 7.00

====

- TESTED SYSTEM: BCAT2 (Homo sapiens)
- EXPERIMENTAL DETAILS: BCAT2 in vitro enzyme inhibition assay (hBCAT2, glutamate dehydrogenase/diaphorase/resazurin coupled fluorescence read)
- Format: biochemical
- REPORTED CONDITIONS: hBCAT2, 1 h preincubation at 25° C., one hour reaction; average where tested multiple times
pIC50: −log10 of the molar value.
The entries below come with measured pIC50 values attached.

Worked examples follow.
smi=CN1C[C@@H](NC(=O)c2cc(Cl)ccn2)C[C@@H](n2c(-c3ccccc3OC(F)F)nc3cnc(-c4nc[nH]n4)cc32)C1 measurement_name=pIC50 observed_measurement="6.30 to 7.00"
smi=O=C1c2cc(F)ccc2CN1[C@H]1CCC[C@@H](n2c(-c3ccccc3OC(F)F)nc3cnc(-c4nc[nH]n4)cc32)C1 measurement_name=pIC50 observed_measurement="> 7.00"
smi=CC(C)Oc1ccc(Cl)cc1C(=O)N[C@H]1CCC[C@@H](n2c(-c3ccccc3F)nc3cnc(-c4nc[nH]n4)cc32)C1 measurement_name=pIC50 observed_measurement="> 7.00"
smi=CN1C[C@@H](NC(=O)c2cc(F)ccn2)C[C@@H](n2c(-c3ccccc3F)nc3cnc(-c4nc[nH]n4)cc32)C1 measurement_name=pIC50 observed_measurement="6.30 to 7.00"
smi=O=C1c2cc(F)ccc2OCN1[C@H]1CCC[C@@H](n2c(-c3ccccc3F)nc3cnc(-c4nc[nH]n4)cc32)C1 measurement_name=pIC50 observed_measurement="> 7.00"

Asked: Please give the measured pIC50 for this compound: CN1C[C@H](NC(=O)c2cc(Cl)ccn2)C[C@H](n2c(-c3ccccc3F)nc3cnc(-c4nc[nH]n4)cc32)C1
Given back: > 7.00

====

The entries below come with measured pIC50 values attached.
- TESTED SYSTEM: UniProt O15382
- EXPERIMENTAL DETAILS: BCAT2 in vitro enzyme inhibition assay (hBCAT2, glutamate dehydrogenase/diaphorase/resazurin coupled fluorescence read)
- Type: biochemical
- REPORTED CONDITIONS: hBCAT2, 1 h preincubation at 25° C., one hour reaction; average where tested multiple times
pIC50: −log10 of the molar value.

Worked examples follow.
molecule=O=C1c2cc(F)ccc2CN1[C@H]1CCC[C@@H](n2c(-c3ccccc3F)nc3cnc(-n4nccn4)cc32)[C@@H]1O tested_system="UniProt O15382" measurement_name=pIC50 observed_measurement="> 7.00"
molecule=COc1ccc(C#N)cc1C(=O)N[C@H]1CCC[C@@H](n2c(-c3ccccc3F)nc3cnc(-c4nc[nH]n4)cc32)C1 tested_system="UniProt O15382" measurement_name=pIC50 observed_measurement="> 7.00"
molecule=CC(C)Cc1nc2ccc(-c3ncccn3)cc2n1[C@@H]1CCC[C@H](NC(=O)c2cc(Cl)ccn2)[C@H]1O tested_system="UniProt O15382" measurement_name=pIC50 observed_measurement="> 7.00"
molecule=COc1ccc(F)cc1C(=O)N[C@H]1CCC[C@@H](n2c(-c3ccccc3F)nc3cnc(-c4nc[nH]n4)cc32)C1 tested_system="UniProt O15382" measurement_name=pIC50 observed_measurement="> 7.00"
molecule=O=C(N[C@H]1CCC[C@@H](n2c(-c3ncccc3OC(F)F)nc3cnc(-c4ncn[nH]4)cc32)C1)c1cc(O)ccc1Cl tested_system="UniProt O15382" measurement_name=pIC50 observed_measurement="> 7.00"
molecule=CN1C[C@H](NC(=O)c2cc(F)ccn2)C[C@H](n2c(-c3ccccc3F)nc3cnc(-c4nc[nH]n4)cc32)C1 tested_system="UniProt O15382" measurement_name=pIC50 observed_measurement="> 7.00"

Asked: Please give the measured pIC50 for this molecule: O=C(N[C@H]1CCC[C@@H](n2c(-c3ccccc3F)nc3cnc(-c4nc[nH]n4)cc32)C1)c1ccc(F)cn1
Given back: > 7.00

Asked: Please give the measured pIC50 for this molecule: CN1CC(NC(=O)c2cc(Cl)ccc2O)C[C@H](n2c(-c3ccccc3F)nc3cnc(-c4nc[nH]n4)cc32)C1 (stereo in doubt)
Given back: > 7.00

====

The entries below come with measured pIC50 values attached.
- TESTED SYSTEM: BCAT2 (Homo sapiens, UniProt O15382)
- Sequence (O15382 28-392): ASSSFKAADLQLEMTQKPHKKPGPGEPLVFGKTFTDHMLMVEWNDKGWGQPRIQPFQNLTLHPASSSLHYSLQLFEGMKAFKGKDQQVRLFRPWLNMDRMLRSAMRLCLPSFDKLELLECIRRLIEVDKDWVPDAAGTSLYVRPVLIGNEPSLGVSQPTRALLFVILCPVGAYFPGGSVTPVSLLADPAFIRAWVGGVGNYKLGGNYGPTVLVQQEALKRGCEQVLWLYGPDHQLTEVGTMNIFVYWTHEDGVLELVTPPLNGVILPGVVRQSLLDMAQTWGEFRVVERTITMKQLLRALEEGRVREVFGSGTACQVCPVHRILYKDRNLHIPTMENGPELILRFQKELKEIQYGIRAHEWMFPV
- EXPERIMENTAL DETAILS: BCAT2 cell inhibition using engineered A549 cells (MUT KO, BCAT1 KO; 13C6-KMV formation by LC-MS/MS)
- Format: cell-based
- Design: expressed endogenous BCAT2; endogenous in cells; host or cells: A549 cells, MUT knockout and BCAT1 knockout
pIC50: −log10 of the molar value.

Worked examples follow.
molecule="O=C1c2cc(F)ccc2CN1[C@H]1CCC[C@@H](n2c(-c3c(F)cccc3F)nc3cnc(-n4nccn4)cc32)[C@@H]1O [Example 186]" tested_system="BCAT2 (Homo sapiens, UniProt O15382)" observed_measurement="> 7.00"
molecule="COc1ccc(Cl)cc1C(=O)N[C@H]1C[C@H](OC)C[C@@H](n2c(-c3ccccc3F)nc3cnc(-c4nc[nH]n4)cc32)C1 [Example 106]" tested_system="BCAT2 (Homo sapiens, UniProt O15382)" observed_measurement="> 7.00"

In the following, a different molecule is considered.
Asked: Please give the measured pIC50 for this molecule: CO[C@H]1C[C@H](NC(=O)c2cc(F)ccn2)C[C@H](n2c(-c3ccccc3F)nc3cnc(-c4nc[nH]n4)cc32)C1 [Example 113]
Given back: > 7.00

====

- TESTED SYSTEM: BCAT2 (Homo sapiens, UniProt O15382)
- EXPERIMENTAL DETAILS: BCAT2 in vitro enzyme inhibition assay (hBCAT2, glutamate dehydrogenase/diaphorase/resazurin coupled fluorescence read)
- Type: biochemical
- REPORTED CONDITIONS: hBCAT2, 1 h preincubation at 25° C., one hour reaction; average where tested multiple times
- Procedure: • 2×Buffer: 200 mM Tris pH 8.0, 300 mM NaCl, 0.1% BSA • 1.67×hBCAT2 Enzyme Mix: 0.33 μg/mL hBCAT2, 1× Buffer • 2.5×Substrate Mix: 460 µM L-leucine, 420 µM α-KetoGlutarate, 10 U/mL glutamate dehydrogenase, 10 mM NAD, […] diaphorase, […] Resazurin BCAT2 enzyme stock solution was diluted to prepare a 1.67×hBCAT2 Enzyme Mix. […] Reactions were quenched after one hour by the addition of 25 μL of 6% SDS and reaction progress was measured via fluorescence read (Ex 540/Em 590). […]
pIC50: −log10 of the molar value.
The entries below come with measured pIC50 values attached.

Worked examples follow.
compound="N[C@@H]1[C@@H](NC(=O)c2cc(F)ccc2F)CCC[C@H]1n1c(-c2ccccc2F)nc2cnc(-c3nc[nH]n3)cc21 [Example 127]" measurement_name=pIC50 observed_measurement="> 7.00"
compound="Nc1ccc(Cl)cc1C(=O)N[C@H]1CCC[C@@H](n2c(-c3ccccc3F)nc3cnc(-c4nc[nH]n4)cc32)C1 [Example 41]" measurement_name=pIC50 observed_measurement="6.30 to 7.00"
compound="CN1C[C@@H](NC(=O)c2cc(Cl)ccn2)C[C@@H](n2c(-c3ccccc3OCCO)nc3cnc(-c4ncco4)cc32)C1 [Example 160]" measurement_name=pIC50 observed_measurement="< 6.00"
compound="O=C(N[C@H]1CCC[C@@H](n2c(CCC3CCOC3)nc3cnc(-c4nc[nH]n4)cc32)C1)c1cc(Cl)ccn1 (stereo partly shown) [Example 94]" measurement_name=pIC50 observed_measurement="< 6.00"
compound="O=C(N[C@H]1CCC[C@@H](n2c(-c3ccccc3F)nc3cnc(-c4nc[nH]n4)cc32)C1)c1cc(Cl)ccn1 [Example 7]" measurement_name=pIC50 observed_measurement="> 7.00"
compound="CO[C@H]1C[C@H](NC(=O)c2cc(F)ccn2)C[C@H](n2c(-c3ccccc3F)nc3cnc(-c4nc[nH]n4)cc32)C1 [Example 113]" measurement_name=pIC50 observed_measurement="> 7.00"

Asked: Please give the measured pIC50 for this compound: COc1ccc(Cl)cc1C(=O)N[C@H]1CCCC[C@@H](n2c(-c3c(F)cccc3OC)nc3cnc(-c4nc[nH]n4)cc32)[C@@H]1O [Example 110]
Given back: > 7.00

Asked: Please give the measured pIC50 for this compound: NC(=O)c1ccccc1-c1nc2cnc(-c3nc[nH]n3)cc2n1[C@@H]1CCC[C@H](N2COc3ccc(Cl)cc3C2=O)C1 [Example 207]
Given back: > 7.00

Asked: Please give the measured pIC50 for this compound: CO[C@H]1C[C@H](NC(=O)c2cc(F)ccc2F)C[C@H](n2c(-c3ccccc3OCCO)nc3cnc(-c4ncco4)cc32)C1 [Example 123]
Given back: > 7.00

Asked: Please give the measured pIC50 for this compound: O=C(N[C@H]1C[C@@H](n2c(-c3ccccc3OCCO)nc3ccc(-c4nc[nH]n4)cc32)CC(F)(F)C1)c1cc(F)ccn1 [Example 232]
Given back: 6.30 to 7.00

Asked: Please give the measured pIC50 for this compound: O=C1c2cc(F)ccc2CN1[C@H]1CCC[C@@H](n2c(-c3ccccc3OC(F)F)nc3ccc(-c4nc[nH]n4)c(F)c32)C1 [compound 238]
Given back: > 7.00

Asked: Please give the measured pIC50 for this compound: CN1C[C@@H](NC(=O)c2cc(Cl)ccn2)C[C@@H](n2c(-c3ccccc3OCCO)nc3cnc(-c4ncccn4)cc32)C1 [Example 165]
Given back: > 7.00

Asked: Please give the measured pIC50 for this compound: O=C(N[C@H]1CCC[C@@H](n2c(-c3ncccc3F)nc3cnc(-c4nc[nH]n4)cc32)C1)c1cc(Cl)ccc1OC(F)F [compound 47]
Given back: > 7.00

Asked: Please give the measured pIC50 for this compound: O=C1c2cc(Cl)ccc2OCN1[C@H]1CCC[C@@H](n2c(-c3ccccc3F)nc3cnc(-c4nc[nH]n4)cc32)C1 [Example 202]
Given back: > 7.00

FYI, the data here is from patent US20260334439A1.
